The reported measurements were obtained from patent US20240101668A1.

Target: T1, huCLL1-K244-Avi-Tev-His (human, UniProt Q5QGZ9 65-265);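 also: Bio-layer interferometry with scFvs captured on biosensors via anti-V5 antibody, exposed 2 min to CLL-1 K244 or Q244 protein, 5 min dissociation, scored as binding, no binding or ambiguous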
T1 construct: extracellular domain
T1 sequence (looked up): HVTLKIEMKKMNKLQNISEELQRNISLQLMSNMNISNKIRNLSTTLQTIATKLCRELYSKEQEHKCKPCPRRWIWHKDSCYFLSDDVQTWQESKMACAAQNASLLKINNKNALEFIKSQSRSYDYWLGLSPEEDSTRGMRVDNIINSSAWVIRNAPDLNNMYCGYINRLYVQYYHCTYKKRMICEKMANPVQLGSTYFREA
Test: BLI
RESULT TYPE: binding result

* Polypeptide No. 74 (scFv, V domains shown, scFv) VH: QVQLVQSGAEVKKPGSSVKVSCKASGYTFTKYEINWVRQAPGQGLEWMGGIIPIFGTANYAQKFQGRVTITADESTSTAYMELSSLRSEDTAVYYCARGSGWYTPLFDYWGQGTLVTVSS VL: DIQMTQSPSSLSASVGDRVTITCRASQGISNNLNWYQQKPGKAPKLLIYDASYLETGVPSRFSGSGSGTDFTLTISSLQPEDFATYYCQQSYSAPLTFGQGTKVEIKR | no binding
* Polypeptide No. 76 (scFv, V domains shown, scFv) VH: QVQLVQSGAEVKKPGASVKVSCKASGYTFTTYYMHWVRQAPGQGLEWMGIINVSAGTTSYAQKFQGRVTMTRDTSTSTVYMELSSLRSEDTAVYYCAKEPYPHQSGWFFDYWGQGTLVTVSS VL: DIQMTQSPSSLSASVGDRVTITCQASQDINNYLNWYQQKPGKAPKLLIYDASNLETGVPSRFSGSGSGTDFTLTISSLQPEDFATYYCQQANSFPLTFGGGTKVEIKR | no binding
* Polypeptide No. 71 (scFv, V domains shown, scFv) VH: EVQLLESGGGLVQPGGSLRLSCAASGFTFSNHYMSWVRQAPGKGLEWVAVIWPDGSKEYYADSVKGRFTISRDNSKNTLYLQMNSLRAEDTAVYYCAREDYYGSGMDYWGQGTLVTVSS VL: DIQMTQSPSSLSASVGDRVTITCQASQDISNYLNWYQQKPGKAPKLLIYGASTLQSGVPSRFSGSGSGTDFTLTISSLQPEDFATYYCQQYDSYPPTFGGGTKVEIKR | no binding
